tested on: 953936-095-R-J2-PDC spheroids with HUVEC/MSC, viability; experiment: Anticancer human tumor 953936-095-R-J2-PDC patient-derived cervical squamous cell carcinoma cell line growth inhibition [PI3K]; conditions: second compound 0.0316 µM; first compound 0.3 µM; stronger effect = lower value
measuredParameter: viability, T/C

> print(dat)
                                   compound  measured
1  Cn1cnc2c(F)c(Nc3ccc(Br)cc3Cl)c(C(=O)NOCCO)cc21 + Cc1nc(NC(=O)N2CCCC2C(N)=O)sc1-c1ccnc(C(C)(C)C(F)(F)F)c1     59.4%
2  Cn1cnc2c(F)c(Nc3ccc(Br)cc3Cl)c(C(=O)NOCCO)cc21 + CC(Nc1ncnc2nc[nH]c12)c1cc2cccc(Cl)c2c(=O)n1-c1ccccc1     67.6%
3  Cn1cnc2c(F)c(Nc3ccc(Br)cc3Cl)c(C(=O)NOCCO)cc21 + CC(Nc1ccc2c(c1)OCCn1cc(N3C(=O)OCC3C(F)F)nc1-2)C(N)=O     42.5%
4  Cn1cnc2c(F)c(Nc3ccc(Br)cc3Cl)c(C(=O)NOCCO)cc21 + COc1c(OCCCN2CCOCC2)ccc2c3n(c(=NC(=O)c4cnc(N)nc4)nc12)CCN3     15.4%

* * *

tested on: 953936-095-R-J2-PDC spheroids with HUVEC/MSC, viability; test: Anticancer human tumor 953936-095-R-J2-PDC cell line growth inhibition [PI3K]; details: second compound 3.16 µM; first compound 0.0316 µM; stronger effect = lower value;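 also: spheroids exposed to compounds for seven days before read-out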
Each item that follows carries a reported viability, T/C.

compound	viability, T/C [%]
Cn1ncnc1[C@H]1c2n[nH]c(=O)c3cc(F)cc(c23)N[C@@H]1c1ccc(F)cc1 + CC(Nc1ncnc2nc[nH]c12)c1cc2cccc(Cl)c2c(=O)n1-c1ccccc1	78
CC(C)NCC(C(=O)N1CCN(c2ncnc3c2C(C)CC3O)CC1)c1ccc(Cl)cc1 (stereo unspecified) + CC(Nc1ncnc2nc[nH]c12)c1cc2cccc(Cl)c2c(=O)n1-c1ccccc1	79.7
C[C@@H](NC(=O)c1ncnc(N)c1Cl)c1ncc(C(=O)Nc2cc(C(F)(F)F)c(Cl)cn2)s1 + CC(Nc1ncnc2nc[nH]c12)c1cc2cccc(Cl)c2c(=O)n1-c1ccccc1	87.2
Cn1ncc(Cl)c1-c1cc(C(=O)NC(CN)Cc2cccc(F)c2)sc1Cl (stereo unspecified) + CC(Nc1ncnc2nc[nH]c12)c1cc2cccc(Cl)c2c(=O)n1-c1ccccc1	82.3
C=CC(=O)N1CCN(c2nc(=O)n(-c3c(C)ccnc3C(C)C)c3nc(-c4c(O)cccc4F)c(F)cc23)C(C)C1 (stereo unspecified) + Cc1nc(NC(=O)N2CCCC2C(N)=O)sc1-c1ccnc(C(C)(C)C(F)(F)F)c1	27
CCN1CCN(Cc2ccc(Nc3ncc(F)c(-c4cc(F)c5nc(C)n(C(C)C)c5c4)n3)nc2)CC1 + CC(Nc1ncnc2nc[nH]c12)c1cc2cccc(Cl)c2c(=O)n1-c1ccccc1	81.8
C#Cc1c(F)ccc2cc(O)cc(-c3ncc4c(N5CC6CCC(C5)N6)nc(OCC56CCCN5CC(F)C6)nc4c3F)c12 (stereo unspecified) + CC(Nc1ncnc2nc[nH]c12)c1cc2cccc(Cl)c2c(=O)n1-c1ccccc1	87.9
CC(=O)c1c(C)c2cnc(Nc3ccc(N4CCNCC4)cn3)nc2n(C2CCCC2)c1=O + CC(Nc1ncnc2nc[nH]c12)c1cc2cccc(Cl)c2c(=O)n1-c1ccccc1	74.8
Cn1nccc1Nc1nccc(-c2ccn(C(CO)c3ccc(Cl)c(F)c3)c(=O)c2)n1 (stereo unspecified) + CC(Nc1ncnc2nc[nH]c12)c1cc2cccc(Cl)c2c(=O)n1-c1ccccc1	74.6
CCCS(=O)(=O)Nc1ccc(F)c(C(=O)c2c[nH]c3ncc(-c4ccc(Cl)cc4)cc23)c1F + CC(Nc1ncnc2nc[nH]c12)c1cc2cccc(Cl)c2c(=O)n1-c1ccccc1	76.1
CNC(=O)c1ccc(N2C(=S)N(c3ccc(C#N)c(C(F)(F)F)c3)C(=O)C2(C)C)cc1F + CC(Nc1ncnc2nc[nH]c12)c1cc2cccc(Cl)c2c(=O)n1-c1ccccc1	76.6
Cn1ncc(Cl)c1-c1cc(C(=O)NC(CN)Cc2cccc(F)c2)sc1Cl (stereo unspecified) + Cc1nc(NC(=O)N2CCCC2C(N)=O)sc1-c1ccnc(C(C)(C)C(F)(F)F)c1	25.1
CC(Cn1ccc(-c2ccc(C#N)c(Cl)c2)n1)NC(=O)c1cc(C(C)O)[nH]n1 (stereo unspecified) + Cc1nc(NC(=O)N2CCCC2C(N)=O)sc1-c1ccnc(C(C)(C)C(F)(F)F)c1	24.7
C[C@@H](NC(=O)c1ncnc(N)c1Cl)c1ncc(C(=O)Nc2cc(C(F)(F)F)c(Cl)cn2)s1 + Cc1nc(NC(=O)N2CCCC2C(N)=O)sc1-c1ccnc(C(C)(C)C(F)(F)F)c1	28.2
CC1(C)CCC(CN2CCN(c3ccc(C(=O)NS(=O)(=O)c4ccc(NCC5CCOCC5)c([N+](=O)[O-])c4)c(Oc4cnc5[nH]ccc5c4)c3)CC2)=C(c2ccc(Cl)cc2)C1 + Cc1nc(NC(=O)N2CCCC2C(N)=O)sc1-c1ccnc(C(C)(C)C(F)(F)F)c1	27.4
CC(C)n1nc(-c2ccc3oc(N)nc3c2)c2c(N)ncnc21 + Cc1nc(NC(=O)N2CCCC2C(N)=O)sc1-c1ccnc(C(C)(C)C(F)(F)F)c1	10.8
CC(=O)c1c(C)c2cnc(Nc3ccc(N4CCNCC4)cn3)nc2n(C2CCCC2)c1=O + Cc1nc(NC(=O)N2CCCC2C(N)=O)sc1-c1ccnc(C(C)(C)C(F)(F)F)c1	28.3
CC1(C)CCC(CN2CCN(c3ccc(C(=O)NS(=O)(=O)c4ccc(NCC5CCOCC5)c([N+](=O)[O-])c4)c(Oc4cnc5[nH]ccc5c4)c3)CC2)=C(c2ccc(Cl)cc2)C1 + CC(Nc1ncnc2nc[nH]c12)c1cc2cccc(Cl)c2c(=O)n1-c1ccccc1	80.4
C#Cc1c(F)ccc2cc(O)cc(-c3ncc4c(N5CC6CCC(C5)N6)nc(OCC56CCCN5CC(F)C6)nc4c3F)c12 (stereo unspecified) + Cc1nc(NC(=O)N2CCCC2C(N)=O)sc1-c1ccnc(C(C)(C)C(F)(F)F)c1	25.2
CC(C)n1nc(-c2ccc3oc(N)nc3c2)c2c(N)ncnc21 + CC(Nc1ncnc2nc[nH]c12)c1cc2cccc(Cl)c2c(=O)n1-c1ccccc1	41.1
CC(Cn1ccc(-c2ccc(C#N)c(Cl)c2)n1)NC(=O)c1cc(C(C)O)[nH]n1 (stereo unspecified) + CC(Nc1ncnc2nc[nH]c12)c1cc2cccc(Cl)c2c(=O)n1-c1ccccc1	83.7

* * *

tested on: 953936-095-R-J2-PDC spheroids with HUVEC/MSC, viability; test: Anticancer human tumor 953936-095-R-J2-PDC cell line growth inhibition [PI3K]; conditions: second compound 0.00316 µM; first compound 0.1 µM; stronger effect = lower value;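 also: spheroids exposed to compounds for seven days before read-out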
viability, T/C less than 90% is true; viability, T/C greater than or equal to 90% is false.

compound	answerLabel
CC1(C)CCC(Nc2ncc(C(F)(F)F)c(-c3c[nH]c4c(P(C)(C)=O)c(C#N)ccc34)n2)CN1 (stereo not given) + COc1c(OCCCN2CCOCC2)ccc2c3n(c(=NC(=O)c4cnc(N)nc4)nc12)CCN3	true
CCCS(=O)(=O)Nc1ccc(F)c(C(=O)c2c[nH]c3ncc(-c4ccc(Cl)cc4)cc23)c1F + CC(Nc1ccc2c(c1)OCCn1cc(N3C(=O)OCC3C(F)F)nc1-2)C(N)=O	false

* * *

test system: 953936-095-R-J2-PDC spheroids with HUVEC/MSC, viability; experiment: Anticancer human tumor 953936-095-R-J2-PDC cell line growth inhibition [PI3K]; conditions: curve of first compound; second compound 1 µM;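 also: spheroids exposed to compounds for seven days before read-out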

molecule	target	IC50
C[C@@H](NC(=O)c1ncnc(N)c1Cl)c1ncc(C(=O)Nc2cc(C(F)(F)F)c(Cl)cn2)s1 + Cc1nc(NC(=O)N2CCCC2C(N)=O)sc1-c1ccnc(C(C)(C)C(F)(F)F)c1	953936-095-R-J2-PDC spheroids with HUVEC/MSC, viability	192 nM
CC1(C)CCC(Nc2ncc(C(F)(F)F)c(-c3c[nH]c4c(P(C)(C)=O)c(C#N)ccc34)n2)CN1 (stereo unspecified) + Cc1nc(NC(=O)N2CCCC2C(N)=O)sc1-c1ccnc(C(C)(C)C(F)(F)F)c1	953936-095-R-J2-PDC spheroids with HUVEC/MSC, viability	< 31.6 nM
CC(C)n1nc(-c2ccc3oc(N)nc3c2)c2c(N)ncnc21 + CC(Nc1ccc2c(c1)OCCn1cc(N3C(=O)OCC3C(F)F)nc1-2)C(N)=O	953936-095-R-J2-PDC spheroids with HUVEC/MSC, viability	< 0.316 nM
Cn1ncc(Cl)c1-c1cc(C(=O)NC(CN)Cc2cccc(F)c2)sc1Cl (stereo unspecified) + COc1c(OCCCN2CCOCC2)ccc2c3n(c(=NC(=O)c4cnc(N)nc4)nc12)CCN3	953936-095-R-J2-PDC spheroids with HUVEC/MSC, viability	< 31.6 nM
CC1(C)CCC(Nc2ncc(C(F)(F)F)c(-c3c[nH]c4c(P(C)(C)=O)c(C#N)ccc34)n2)CN1 (stereo unspecified) + CC(Nc1ccc2c(c1)OCCn1cc(N3C(=O)OCC3C(F)F)nc1-2)C(N)=O	953936-095-R-J2-PDC spheroids with HUVEC/MSC, viability	< 31.6 nM
Cn1cnc2c(F)c(Nc3ccc(Br)cc3Cl)c(C(=O)NOCCO)cc21 + CC(Nc1ncnc2nc[nH]c12)c1cc2cccc(Cl)c2c(=O)n1-c1ccccc1	953936-095-R-J2-PDC spheroids with HUVEC/MSC, viability	732 nM

Origin of values: PubChem BioAssay AID1963971
